- system: human insulin-like growth factor-I (IGF-I) (human, UniProt P05019 49-118)
- experiment_description: cell-based or functional assay
For each record, write down the corresponding EC50 (nM), n = 2, IGF-I pTYR, BxPC3 cells.
Give bare numbers, in nM.

Quick request: EC50 (nM), n = 2, IGF-I pTYR, BxPC3 cells for each listed item, please.
1. mAb 7.234.2 (antibody, V domains shown, Kappa light chain (L5/JK3); also called 7.234.1; 7_234_1) VH: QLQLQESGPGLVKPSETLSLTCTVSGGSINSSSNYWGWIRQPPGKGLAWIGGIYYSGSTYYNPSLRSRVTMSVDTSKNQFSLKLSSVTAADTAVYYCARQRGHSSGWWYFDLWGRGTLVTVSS VL: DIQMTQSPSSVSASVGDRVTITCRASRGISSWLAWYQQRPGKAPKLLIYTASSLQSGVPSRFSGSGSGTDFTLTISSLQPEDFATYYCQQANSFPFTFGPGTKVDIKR
2. mAb 7.251.3 (antibody, V domains shown, Fully human XenoMouse hybridoma mAb, lambda light chain (V1-13/JL2); also called ATCC PTA-7422) VH: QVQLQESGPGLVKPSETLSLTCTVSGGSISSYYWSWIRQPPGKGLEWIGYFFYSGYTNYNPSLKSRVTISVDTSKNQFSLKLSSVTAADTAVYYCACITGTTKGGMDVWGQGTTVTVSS VL: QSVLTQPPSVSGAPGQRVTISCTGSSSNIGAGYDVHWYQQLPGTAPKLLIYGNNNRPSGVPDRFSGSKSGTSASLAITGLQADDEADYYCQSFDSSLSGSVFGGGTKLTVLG
3. mAb 7.159.2 (antibody, V domains shown, Fully human XenoMouse hybridoma mAb, lambda light chain (V1-19/JL2); Sister clones 7.159.1 and 7.159.2 are said to be identical; also called 7.159.1; 7_159_1) VH: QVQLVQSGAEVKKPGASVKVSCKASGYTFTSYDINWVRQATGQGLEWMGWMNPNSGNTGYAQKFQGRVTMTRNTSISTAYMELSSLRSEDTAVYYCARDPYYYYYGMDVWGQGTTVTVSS VL: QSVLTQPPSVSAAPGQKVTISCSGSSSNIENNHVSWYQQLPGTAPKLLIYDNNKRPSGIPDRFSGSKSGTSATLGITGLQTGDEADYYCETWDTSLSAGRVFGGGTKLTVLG

Reply |
2.9
5.3
1.6

Ask | Fill in: EC50 (nM), n = 2, IGF-I pTYR, BxPC3 cells of mAb 7.34.1 (antibody, V domains shown, Fully human XenoMouse hybridoma mAb, lambda light chain (V1-13/JL2); also called ATCC PTA-7423) VH: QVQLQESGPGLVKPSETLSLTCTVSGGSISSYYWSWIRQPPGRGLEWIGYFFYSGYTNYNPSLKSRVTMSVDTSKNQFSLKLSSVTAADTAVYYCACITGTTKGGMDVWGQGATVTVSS VL: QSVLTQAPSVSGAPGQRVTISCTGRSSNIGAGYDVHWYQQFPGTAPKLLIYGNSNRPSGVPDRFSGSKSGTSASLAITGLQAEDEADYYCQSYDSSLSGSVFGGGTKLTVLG is ___
Reply | 3.8
